Taken from PubChem BioAssay AID1159580.

assay: chemical genetic growth profiling, strain panel (AID 1159580);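 further: tested at 20 µM; growth read once vehicle control cultures reached saturation at 30 °C; 1 = growth at the plate median or of vehicle wells; lower values mean less growth of the strain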; conditions: S. cerevisiae deletion strains, growth OD, locus YOR080W, strain dia2, stronger effect = lower value
Out of some 5,500 compounds screened, about 2,000 (36%) were called active. Not shown: some 18% with an inconclusive outcome. This is one part of the list.

| Compound | normalized growth |
| --- | --- |
| CC(C)=CCc1c(O)cc2occ(-c3ccc4c(c3)OCO4)c(=O)c2c1O | 0.925 |
| O=C(/C=C/C(=O)Oc1ccccc1C(=O)O)Oc1ccccc1C(=O)O | 0.98 |
| COc1cc2ccc(=O)oc2c(OC)c1OC | 0.968 |
| Fc1ccc(C(c2ccc(F)cc2)N2CCN(C/C=C/c3ccccc3)CC2)cc1 | 0.423 |
| COc1cc2ccc(=O)oc2cc1O | 0.967 |
| CCCC(=O)Nc1ncnc2c1ncn2C1O[C@@H]2COP(=O)(O)O[C@H]2[C@H]1OC(=O)CCC (some centres undefined) | 0.983 |
| CCCCC/C=C\C/C=C\C/C=C\C/C=C\CCCC(=O)O | 0.97 |
| O=c1c(-c2ccc3c(c2)OCO3)coc2cc(O)ccc12 | 0.981 |
| COc1cc(OC)c2c(=O)c(-c3ccc4c(c3)OCO4)coc2c1 | 1 |

###

experiment: chemical genetic growth profiling, strain panel (AID 1159580);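 further: tested at 20 µM; growth read once vehicle control cultures reached saturation at 30 °C; 1 = growth at the plate median or of vehicle wells; lower values mean less growth of the strain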; conditions: S. cerevisiae deletion strains, growth OD, locus YJR043C, strain POL32, stronger effect = lower value
Out of some 5,500 compounds screened, about 2,000 (36%) were called active. Roughly 18% stayed inconclusive and do not appear here. The list shows a part of the results.
Mark condition met only for normalized growth values smaller than 1; exact matches and larger values are condition not met.

| Line notation | Group |
| --- | --- |
| S=C(NCc1ccco1)Nc1ccc(Oc2ccc(Cl)cc2)cc1 | condition met |
| CC(C)(C)c1cc(C(C)(C)C)n(-c2ccc(N=Cc3cc(Br)cc(Br)c3O)cc2)n1 | condition met |
| N#CCCNc1cc(C(F)(F)F)cc(C(F)(F)F)c1 | condition met |
| O=C1c2ccc(O)c(O)c2C(=O)c2c(O)ccc(O)c21 | condition not met |

###

test: chemical genetic growth profiling, strain panel (AID 1159580);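 further: tested at 20 µM; growth read once vehicle control cultures reached saturation at 30 °C; 1 = growth at the plate median or of vehicle wells; lower values mean less growth of the strain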; conditions: S. cerevisiae deletion strains, growth OD, locus YDL134C, strain PPH21, stronger effect = lower value
About 2,000 (36%) of roughly 5,500 compounds were called active. About 18% were inconclusive and are not listed. This is one part of the list.
Collected normalized growth values appear next to each entry.

| Line notation | normalized growth |
| --- | --- |
| Nc1ncnc2c1ncn2[C@@H]1O[C@H](CO)[C@@H](O)[C@@H]1O | 1.01 |
| Cn1c(=O)[nH]c(=O)c2[nH]cnc21 | 0.999 |
| COP(=S)(OC)SCn1nnc2ccccc2c1=O | 0.985 |

###

assay: chemical genetic growth profiling, strain panel (AID 1159580);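 further: tested at 20 µM; growth read once vehicle control cultures reached saturation at 30 °C; 1 = growth at the plate median or of vehicle wells; lower values mean less growth of the strain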; settings: S. cerevisiae deletion strains, growth OD, locus YOR001W, strain rrp6, stronger effect = lower value
About 2,000 (36%) of roughly 5,500 compounds were called active. About 18% were inconclusive and are not listed. This is one part of the list.
Reported normalized growth values for a set of compounds

| Compound | normalized growth |
| --- | --- |
| N#Cc1ccc2c(c1)N(CCCN1CCC(O)CC1)c1ccccc1S2 | 0.981 |
| Cn1c(=O)[nH]c(=O)c2[nH]cnc21 | 1.01 |
| OCCN1CCN(CCCN2c3ccccc3Sc3ccc(Cl)cc32)CC1 | 0.976 |
| COC(=O)C1=CO[C@@H](O[C@@H]2O[C@H](CO)[C@@H](O)[C@H](O)[C@H]2O)[C@@H]2[C@@H](C)[C@@H](O)C[C@H]12 | 1 |
| CC(=O)N[C@@H](CC(=O)O)C(=O)O | 0.988 |
| COc1cc(OC)c2c(c1Cl)OC1(C2=O)C(O)=CC(=O)CC1C (stereo unspecified) | 1.01 |
